Taken from patent US20220025023A1.

# measuredOn: T1, TDP-214 peptide (human)
# T1 construct: 8-mer of human TDP-43; same ELISA method as for the biotinylated 15-mers
# T1 peptide: YGDVMDVF
# assayText: indirect ELISA, 8-mer peptide library

binder | binding result
ACI-7062-415C4-Ab1 (antibody, IgG1, V domains shown, also called 415C4C6; clone 14) VH: QVTLKESGPGILQPSQTLSLTCSFSGFSLSTYGIGVGWIRQPSGKGLEWLAHIWWNDNKYYKTALKSRLTISKDTSNNQVFLKIASVDTADSATYYCARVYGNLYYFGYWGQGTTLTVSS VL: DVLMTQTPLSLPVSLGDQASISCRSSQSIVHSTGNTYLEWYLQKPGQSPKLLIYKVSNRFSGVPDRFSGSGSGTDFTLKISRVEAEDLGVYYCFQGSRVPTFGAGTKLELKR | no binding
ACI-7062-406E3-Ab2 (antibody, IgG2a, V domains shown, also called 406E3G10; clone 6) VH: QVTLKESGPAILQPSQTLSLTCSFSGFSLTTYGIGVGWIRQPSGKGLEWLAHIWWNDNKYYNTALKSRLTVSKDTSNNQVFLKIASVDTADTATYYCARVYGNLYYFAYWGQGTTLTVSS VL: DVLMTQTPLSLPVSLGDRASISCRSSQSIVHRSGNTYLEWYLQKPGQSPKLLIYKVSNRFSGVPDRFSGSGSGTDFTLKISRVEAEDLGVYYCFQGSHVPTFGAGTKLELKR | no binding
ACI-7062-416A11-Ab1 (antibody, IgG2a, V domains shown, also called 416A11B3; clone 18) VH: QVTLKESGPGILQSSQTLSLTCSFSGFSLSTYGIGVGWIRQPSGKGLEWLAHIWWNDNKYYNTALKSRLTISKDTSNNQVFLKIASVDTADAATYYCARVYGNLYYFGYWGQGTTLTVSS VL: DVLMTQTPLSLPVSLGDRASISCRSSQSIVHSSGNTYLEWYLQKPGQSPKLLIYKVSNRFSGVPDRFSGSGSGTDFTLKISRVEAEDLGVYYCFQGSRVPTFGAGTKLELKR | no binding
